Source: patent US5238922A

Molecular target: Farnesyl-protein transferase (FTase) from bovine brain (Bos taurus, UniProt P29702+P49355)
Construct: incubated with this partially purified enzyme preparation
Assay: In vitro inhibition of Ras Farnesyl Transferase
Details: partially purified bovine brain FTase; Ras-CVLS 3.5 μM, 0.25 μM [3H]FPP; read-out: IC50 (concentration of compound which gives 50% inhibition of FTase)
READOUT: IC50 (nM)

>>> meas_value("CC[C@H](C)[C@@H](CN[C@@H](Cc1ccccc1)C(=O)N[C@@H](CCSC)C(=O)O)NC[C@@H](N)CS")
4.7
>>> meas_value("CCOC(=O)[C@H](CCSC)NC(=O)[C@H](Cc1ccccc1)NC(=O)[C@@H](NC[C@@H](N)CS)[C@@H](C)CC")
2000
>>> meas_value("CSCC[C@H](NC(=O)[C@H](Cc1ccccc1)NC[C@@H](NC(=O)[C@@H](N)CS)C(C)C)C(=O)O")
7
